Overview of recorded protein stability index for various variants
B1: COX4I1 (parent)
chain: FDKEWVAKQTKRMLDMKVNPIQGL

Variants of: B1
Assay: protein stability index of a GFP-peptide fusion (GPS, HEK-293T) (PSI 1-6); higher = more stable;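 further: lentivirally expressed fusions sorted by FACS into six bins by GFP to DsRed ratio, PSI derived from sequencing read proportions per bin multiplied by bin number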
Settings: c terminus: a fixed tail appended
MEASUREMENT_LABEL: protein stability index

1) F1E :: 3.19
2) Q9E :: 2.26
3) T10P :: 2
4) G23D :: 1.9
5) N19L :: 1.26
6) D15H :: 1.88
7) V18C :: 1.88
8) E4K :: 1.82
9) F1K :: 3.57
10) G23T :: 1.77
11) M16N :: 1.67
12) K3E :: 2.83
13) A7R :: 2.45
14) E4C :: 1.62
15) A7L :: 1.56
16) M16C :: 1.65
17) K17L :: 2.57
18) R12L :: 3.17
19) L24G :: 2.86
20) K11M :: 1.9
21) F1W :: 2.17
22) A7F :: 1.56
23) N19T :: 1.16
24) K17M :: 1.58
25) M16A :: 1.48
26) E4H :: 2.35
27) L24N :: 2.28
28) N19Y :: 2.55
29) P20F :: 1.71
30) M16Q :: 2.4
31) R12D :: 1.88
32) K17W :: 2.4
33) F1H :: 3.13
34) Q9H :: 1.77
35) M13H :: 1.43
36) K3H :: 1.52
37) R12Q :: 2.84
38) M16S :: 1.88
39) I21G :: 1.75
40) N19S :: 1.97
41) M16E :: 1.52
42) L24S :: 2.31
43) I21R :: 1.61
44) M16K :: 1.5
45) L14S :: 1.54
46) M13K :: 1.88
